# System: GST-Bcl-2
# Test protocol: TR-FRET binding assay, Bcl-2
# Condition info: TR-FRET Ki values
Value type: Binding selectivity ratio (Bcl-XL Ki/Bcl-2 Ki)

• CC1(C)CCC(CN2CCN(c3ccc(C(=O)NS(=O)(=O)c4ccc(NC5CCN(CCCC(F)(F)F)CC5)c([N+](=O)[O-])c4)c(Oc4cccc5[nH]ccc45)c3)CC2)=C(c2ccc(Cl)cc2)C1 = >1057.6
• CC1(C)CCC(CN2CCN(c3ccc(C(=O)NS(=O)(=O)c4ccc(NCC5(N6CCOCC6)CCCCC5)c([N+](=O)[O-])c4)c(Oc4ccc5[nH]ccc5c4)c3)CC2)=C(c2ccc(Cl)cc2)C1 = >13.4
• CC1(C)CCC(CN2CCN(c3ccc(C(=O)NS(=O)(=O)c4ccc(NC5CCN(C6CCOCC6)CC5)c([N+](=O)[O-])c4)c(Nc4cccnc4)c3)CC2)=C(c2ccc(Cl)cc2)C1 = >28730.6285913286
• CN(C)CCCNc1ccc(S(=O)(=O)NC(=O)c2ccc(N3CCN(CC4=C(c5ccc(Cl)cc5)CC(C)(C)CC4)CC3)cc2Oc2ccc3[nH]ccc3c2)cc1S(=O)(=O)C(F)(F)Cl = >2.3
• CC(c1ccccc1-c1ccc(Cl)cc1)N1CCN(c2ccc(C(=O)NS(=O)(=O)c3ccc(NCC4CCOCC4)c([N+](=O)[O-])c3)c(Oc3cccc4[nH]ccc34)c2)CC1 (stereo not shown) = >6600
• CC1(C)CCC(CN2CCN(c3ccc(C(=O)NS(=O)(=O)c4ccc(NCCCN5CCS(=O)(=O)CC5)c([N+](=O)[O-])c4)c(Oc4ccc5[nH]ccc5c4)c3)CC2)=C(c2ccc(Cl)cc2)C1 = >3607.7
• O=C(NS(=O)(=O)c1ccccc1OCCN1CCCCC1)c1ccc(N2CCN(Cc3ccccc3-c3ccc(Cl)cc3)CC2)cc1Oc1ccccc1 = >10.8
• C[C@@H](c1ccccc1-c1ccc(Cl)cc1)N1CCN(c2ccc(C(=O)NS(=O)(=O)c3ccc(NCC4CCOCC4)c([N+](=O)[O-])c3)c(Oc3cccc4[nH]ccc34)c2)CC1 = >5519.8
• COCCOCCNc1ccc(S(=O)(=O)NC(=O)c2ccc(N3CCN(CC4=C(c5ccc(Cl)cc5)CC(C)(C)CC4)CC3)cc2Oc2cccc3[nH]ccc23)cc1[N+](=O)[O-] = 505.1
• CC1(C)CCC(CN2CCN(c3ccc(C(=O)NS(=O)(=O)c4cnc(OCCN5CCOCC5)c(C#N)c4)c(Oc4ccc5[nH]ccc5c4)c3)CC2)=C(c2ccc(Cl)cc2)C1 = 185.1

* * *

Quick reference: Binding selectivity ratio (Bcl-XL Ki/Bcl-2 Ki) of the listed items.
# Test system: GST-Bcl-2
# Test protocol: TR-FRET binding assay, Bcl-2
# Condition info: TR-FRET Ki values
Value type: Binding selectivity ratio (Bcl-XL Ki/Bcl-2 Ki)

* CN(C)CCCNc1ccc(S(=O)(=O)NC(=O)c2ccc(N3CCN(CC4=C(c5ccc(Cl)cc5)CC(C)(C)CC4)CC3)cc2Oc2cccc3[nH]ccc23)cc1[N+](=O)[O-] [Example 57] | 68.7
* CC1(C)CCC(CN2CCN(c3ccc(C(=O)NS(=O)(=O)c4ccc(NCC5CN(CC#N)CCO5)c([N+](=O)[O-])c4)c(Oc4cccc5[nH]cnc45)c3)CC2)=C(c2ccc(Cl)cc2)C1 (centres unmarked) [EXAMPLE 431] | 677.36
